Kindly supply the reported IC50 values for the records listed here.
test system: PE043 primary cells; experiment: Cell viability IC50 (CCK-8), primary cells PE043 from lung adenocarcinoma pleural effusion resistant to EGFR-TKI; conditions: read-out: cell viability IC50

// solved cases for IC50 follow
- smiles repr: "C=CC(=O)Nc1cc(Nc2nccc(-c3cn(C)c4ccccc34)n2)c(OC)cc1N(C)CCN(C)C"
  result: "3.37 µM"
- smiles repr: "CN1CC2CCC(C1)N2Cc1ccc(Nc2ncc(Cl)c(Nc3ccccc3S(=O)(=O)N(C)C)n2)cc1"
  result: "0.0346 µM"

Consider the additional molecule presented here.
Look up IC50: "Nc1ccn([C@@H]2O[C@H](CO)[C@@H](O)C2(F)F)c(=O)n1"
> 834 µM

----------
system: Cal-62 (thyroid cancer); test: Cell viability IC50 (CellTiter-Glo), Cal-62; format: cell-based; details: Homo sapiens, Cal-62, 72 hours
metric: pIC50
Answers are plain numbers, as −log10 of the molar value.

Bench note: what pIC50 did CN1CC2CCC(C1)N2Cc1ccc(Nc2ncc(Cl)c(Nc3ccccc3S(=O)(=O)N(C)C)n2)cc1 [Compound 8] show?
7.66

// data source = patent US20240360145A1
